# Condition description: bacteroides eggerthii, 12 h, 2 µM
# Description: The drug is tested on Bacteroides eggerthii strain: DSM20697 for biotransformation. The drug concentrations were measured before and after a 12-h incubation by liquid-chromatography-coupled mass spectrometry (LC–MS)
Reported endpoint: Bacterial Biotransformation

* Nc1nc(N)nc(-c2cc(Cl)ccc2Cl)n1.O=C(O)/C=C\C(=O)O [IRSOGLADINE MALEATE] | Compound NOT metabolized
* CC(C)c1c(CN(C)C(C)Cc2ccccc2)n(C)n(-c2ccccc2)c1=O (centres undefined) | Compound metabolized
* CCN(CC)CCOC(=O)C1(C2CCCCC2)CCCCC1 | Compound NOT metabolized
* C[C@H]1O[C@@H](O[C@H]2[C@@H](O)C[C@H](O[C@H]3[C@@H](O)C[C@H](O[C@H]4CC[C@@]5(C)[C@H](CC[C@@H]6[C@@H]5C[C@@H](O)[C@]5(C)[C@@H](C7=CC(=O)OC7)CC[C@]65O)C4)O[C@@H]3C)O[C@@H]2C)C[C@H](O)[C@@H]1O | Compound metabolized
* COc1ccccc1OCCNCC(O)COc1cccc2[nH]c3ccccc3c12 (centres undefined) | Compound NOT metabolized

Request: Query: Bacterial Biotransformation; subject: CN1CCC[C@@H]1CCO[C@](C)(c1ccccc1)c1ccc(Cl)cc1.O=C(O)/C=C/C(=O)O [CLEMASTINE FUMARATE]
Result: Compound metabolized

Request: Query: Bacterial Biotransformation; subject: Br.CN1CCC[C@@H]1Cc1c[nH]c2ccc(CCS(=O)(=O)c3ccccc3)cc12 [ELETRIPTAN HYDROBROMIDE]
Result: Compound NOT metabolized

Request: Query: Bacterial Biotransformation; subject: CN(C)C(=O)Oc1cc(OC(=O)N(C)C)cc(C(O)CNC(C)(C)C)c1 (centres undefined)
Result: Compound NOT metabolized

Request: Query: Bacterial Biotransformation; subject: CC(O)(CS(=O)(=O)c1ccc(F)cc1)C(=O)Nc1ccc(C#N)c(C(F)(F)F)c1 (centres undefined) [BICALUTAMIDE]
Result: Compound NOT metabolized

Request: Query: Bacterial Biotransformation; subject: c1ccc2[nH]c(-c3cscn3)nc2c1
Result: Compound NOT metabolized

Request: Query: Bacterial Biotransformation; subject: NC(CO)(CO)CO.O=C(c1ccccc1)c1ccc2n1CCC2C(=O)O (centres undefined)
Result: Compound NOT metabolized

Request: Query: Bacterial Biotransformation; subject: CCN(CC)CCOCCOC(=O)C1(c2ccccc2)CCCC1.O=C(O)CC(O)(CC(=O)O)C(=O)O [CARBETAPENTANE CITRATE]
Result: Compound metabolized

Request: Query: Bacterial Biotransformation; subject: C[C@]12C=CC(=O)C=C1CC[C@@H]1[C@@H]2C(=O)C[C@@]2(C)[C@H]1CC[C@]2(O)C(=O)CO
Result: Compound NOT metabolized

Request: Query: Bacterial Biotransformation; subject: C=C[C@H]1CN2CC[C@H]1C[C@H]2[C@H](O)c1ccnc2ccc(OC)cc12.C=C[C@H]1CN2CC[C@H]1C[C@H]2[C@H](O)c1ccnc2ccc(OC)cc12.O.O.O=S(=O)(O)O [QUININE SULFATE]
Result: Compound NOT metabolized

---

# Assay protocol: The drug is tested on Subdoligranulum variabile strain: DSM15176 for biotransformation. The drug concentrations were measured before and after a 12-h incubation by liquid-chromatography-coupled mass spectrometry (LC–MS)
# Condition description: 2 µM
Reported endpoint: Bacterial Biotransformation

Below, each entry is followed by its recorded Bacterial Biotransformation result.
* COCCCC/C(=N\OCCN)c1ccc(C(F)(F)F)cc1.O=C(O)/C=C\C(=O)O [FLUVOXAMINE MALEATE] | Compound NOT metabolized
* COc1c2occc2cc2ccc(=O)oc12 | Compound NOT metabolized
* COc1cc2c(c(OC)c1OC)-c1ccc(OC)c(=O)cc1[C@@H](NC(C)=O)CC2 | Compound NOT metabolized
* N#Cc1ccc2c(c1)N(CCCN1CCC(O)CC1)c1ccccc1S2 | Compound NOT metabolized
* Cc1cn([C@H]2C[C@H](N=[N+]=[N-])[C@@H](CO)O2)c(=O)[nH]c1=O | Compound NOT metabolized

Request: Query: Bacterial Biotransformation; subject: CN1C(C(=O)Nc2ccccn2)=C(O)c2sccc2S1(=O)=O
Result: Compound NOT metabolized

Request: Query: Bacterial Biotransformation; subject: CCN1CCCC1CNC(=O)c1cc(S(=O)(=O)CC)c(N)cc1OC (centres undefined) [AMISULPRIDE]
Result: Compound NOT metabolized

Request: Query: Bacterial Biotransformation; subject: Cc1ccc(/C(=C\CN2CCCC2)c2ccccn2)cc1
Result: Compound NOT metabolized

Request: Query: Bacterial Biotransformation; subject: CNC(=C[N+](=O)[O-])NCCSCc1ccc(CN(C)C)o1
Result: Compound metabolized

Request: Query: Bacterial Biotransformation; subject: CCC(COC(=O)c1cc(OC)c(OC)c(OC)c1)(c1ccccc1)N(C)C.O=C(O)/C=C\C(=O)O (centres undefined)
Result: Compound metabolized

Request: Query: Bacterial Biotransformation; subject: COc1ccccc1OCC(O)CN1CCN(CC(=O)Nc2c(C)cccc2C)CC1 (centres undefined)
Result: Compound NOT metabolized

Request: Query: Bacterial Biotransformation; subject: Nc1nc2ccc(OC(F)(F)F)cc2s1
Result: Compound NOT metabolized

Request: Query: Bacterial Biotransformation; subject: C#C[C@]1(OC(C)=O)CC[C@H]2[C@@H]3CCC4=C/C(=N/O)CC[C@@H]4[C@H]3CC[C@@]21CC [NORGESTIMATE]
Result: Compound NOT metabolized

Request: Query: Bacterial Biotransformation; subject: CC[C@H](C)C(=O)O[C@H]1C[C@@H](C)C=C2C=C[C@H](C)[C@H](CC[C@@H]3C[C@@H](O)CC(=O)O3)[C@H]21
Result: Compound NOT metabolized

Request: Query: Bacterial Biotransformation; subject: CC(C)c1c(CN(C)C(C)Cc2ccccc2)n(C)n(-c2ccccc2)c1=O (centres undefined)
Result: Compound metabolized

Request: Query: Bacterial Biotransformation; subject: O=C1N=C([O-])NC1(c1ccccc1)c1ccccc1.[Na+] [PHENYTOIN SODIUM]
Result: Compound NOT metabolized

Request: Query: Bacterial Biotransformation; subject: COc1ccc2[nH]c([S+]([O-])Cc3ncc(C)c(OC)c3C)nc2c1 (centres undefined)
Result: Compound metabolized

Request: Query: Bacterial Biotransformation; subject: CCc1oc2ccccc2c1C(=O)c1cc(Br)c(O)c(Br)c1
Result: Compound NOT metabolized

Request: Query: Bacterial Biotransformation; subject: CCN(C)C(=O)Oc1cccc([C@H](C)N(C)C)c1.O=C(O)C(O)C(O)C(=O)O [RIVASTIGMINE TARTRATE]
Result: Compound NOT metabolized
